% Inhibition overview
System: Plasmodium falciparum
Experiment: Confirmatory screen in NF54 nanoGlo assay, in single point, at 2uM, 72h
Format: functional, Erythrocyte
Conditions: timepoint 72 hour
In all, about 4,800 compounds went through this assay and about 420 (8.8%) showed an effect of 50% or more. The entries come from a sample that favours strong results as a whole.
Express it in %; write the number only.

# count of solved cases: 5
> print(dat)
                                   compound  value
1  Cc1nc(N)nc(C)c1C(=O)Nc1ccc(Nc2ncccn2)cc1     46
2  COc1ccccc1[C@H]1CC(O)=Nc2c1ncn2-c1cc(F)cc(F)c1     -4
3    Cc1nc(Cn2nnc(NC(=O)c3cccc(F)c3)c2C)no1      1
4  COc1nn(C)cc1C(=O)N1CCC[C@H](Oc2cccnn2)C1      1
5  Cc1ccc2nc(C3CC3)cc(C(=O)N3C[C@@H](O)C[C@H]3CO)c2c1     -4

Look up % Inhibition with Plasmodium falciparum for this compound: `CN(Cc1nnc[nH]1)C(=O)C1(C)CCC1`
-11

Next up: `COC(=O)c1ncn2c1C(=O)N(Cc1ccccc1OC)[C@](C)(C(=O)NC1CCCCC1)C2`
0

Next up: CC1(C)C(NCC(O)COc2ccc(F)c(F)c2)[C@@H]2CCC[C@@H]21 (some centres undefined)
72

Next up: `Cc1noc(Cl)c1CC(=O)N1CCCC(C)(C)CC1`
38

====

System: Plasmodium falciparum
Assay: Confirmatory screen in NF54 nanoGlo assay, in single point, at 2uM, 72h
Type: functional, Erythrocyte
Conditions: timepoint 72 hour
Out of some 4,800 compounds screened, about 420 (8.8%) showed an effect of 50% or more. The list comes from a sample in which strong results are over-represented; it also holds close analogues and randomly drawn compounds.
observable: % Inhibition (%)
Express it in %; write the number only.

# count of solved cases: 3
> print(dat)
                                   compound    observable  value
1          COc1cccc(N2C(=O)N[C@H](C)C2=O)c1  % Inhibition      8
2  O=S(=O)(c1ccccc1)N1CCC(Nc2ccc(Br)cc2)CC1  % Inhibition     10
3       CCCn1nccc1C(=O)NCCCn1ncc2c(C)cccc21  % Inhibition     -2

Any idea what its % Inhibition is? The compound is `CCOc1cccc(-c2ccc3nc(-c4cccc(OC)c4)c(CCC(=O)NCCN4CCCC4)n3c2)c1`
61

Next up: `CCCCCc1c(C)nc2[nH]n(-c3ccccc3)c(=O)c2c1O`
-19

Next up: `CCOc1cc(C)ccc1S(=O)(=O)NC(C)C`
-3

Next up: `CCOc1cc(CNCCCn2ccnc2)ccc1OCc1ccccc1`
21

Next up: `CCOc1cccc(-c2ccc3nc(-c4cccc(OC)c4)c(CCC(=O)NCCc4ccc(OC)c(OC)c4)n3c2)c1`
23

Next up: `Cc1ccc(S(=O)(=O)N2CCN(C(=O)N3CCOCC3)[C@@H]2C)cc1`
-8

Next up: `COc1cccc(CNCCCN2CCOCC2)c1OCc1ccc(Cl)cc1Cl`
-1

Next up: `C=CCS(=O)(=O)NC(=O)c1cc(C)c(C)cc1Cl`
-2

Next up: `O=C(C[C@H]1CCCN1c1ccnc(C2CC2)n1)c1ccco1`
3

Next up: `O=C([C@H]1CC(=O)N(c2ccc(F)c(Cl)c2)C1)N1CCN(C(c2ccccc2)c2ccccc2)CC1`
-3

====

% Inhibition overview
Test system: Plasmodium falciparum
Test: Confirmatory screen in NF54 nanoGlo assay, in single point, at 2uM, 72h
Format: functional, Erythrocyte
Conditions: timepoint 72 hour
About 420 (8.8%) of roughly 4,800 compounds showed an effect of 50% or more. The sample as a whole holds a higher share of strong results than the screen did.
Express it in %; write the number only.

> print(dat)
                                   molecule             testsystem  measurementunits  value
1               Fc1ccc(Nc2nc3c(s2)CCCC3)cc1  Plasmodium falciparum                 %    -17
2  C#CCOCC(O)CN(Cc1c(-c2ccccc2)noc1N1CCC(C)CC1)CC1CCCO1 (centres undefined)  Plasmodium falciparum                 %    -17
3  O=C(c1cccc(C(=O)N2CCN(C(c3ccccc3)c3ccccc3)CC2)c1)N1CCN(C(c2ccccc2)c2ccccc2)CC1  Plasmodium falciparum                 %     63
4  CNC(=O)c1cc(N2CCN(c3ncc(C(F)(F)F)cc3Cl)CC2)ccc1NC(=O)c1ccccc1Cl  Plasmodium falciparum                 %      7
5   O=C(COc1ccc(Cl)cc1)N1CC(n2cnnc2C2CC2)C1  Plasmodium falciparum                 %     -7

Here is another molecule to look at.
Any idea what its % Inhibition is? The molecule is `Oc1c(-n2cncn2)cnc2ncnn12`
-7

====

Test system: Plasmodium falciparum
Test: Confirmatory screen in NF54 nanoGlo assay, in single point, at 2uM, 72h
Assay type: functional, Erythrocyte
Conditions: timepoint 72 hour
Among all 4,800 compounds or so, about 420 (8.8%) showed an effect of 50% or more. The sample as a whole holds a higher share of strong results than the screen did.
observable: % Inhibition

> print(dat)
                                   molecule             testsystem    observable  value
1  Cc1ccc(-c2csc(NC(=O)c3cccc(C(=O)Nc4nc(-c5ccc(C)cc5C)cs4)n3)n2)c(C)c1  Plasmodium falciparum  % Inhibition    -1%
2               O=C(Nc1nncs1)NC(C1CC1)C1CC1  Plasmodium falciparum  % Inhibition     0%
3  CCOC1CC2(CCN(Cc3cc(Cl)c(OC)cc3Cl)C2)C1 (stereo not drawn)  Plasmodium falciparum  % Inhibition     1%
4   O=C1CCCc2nc3[nH]n(-c4ccccc4)c(=O)c3cc21  Plasmodium falciparum  % Inhibition     8%
5  C[C@@H](C1CC1)N(C)S(=O)(=O)Cc1cc(Cl)cc(Cl)c1  Plasmodium falciparum  % Inhibition    -3%

Any idea what its % Inhibition is? The molecule is `Cc1cc(N(CCO)C2CC2)nc(C2CC2)n1`
-8%

Next up: `COc1ccc2[nH]c(-c3nnc(Cn4c(C)cc5ccccc54)s3)cc2c1`
2%

Next up: `COc1cccc(C(=O)Nc2noc(-c3cccc(OC)c3)c2-c2ccc(Cl)cc2)c1`
-11%
